This collection of values is drawn from patent US20170267766A1.

Target: T1, rmIGF-1R protein (R&D Systems, cat No 6630-GR/Fc) (murine, UniProt Q60751 31-936)
T1 construct: extracellular domain; bought; also called murine extracellular domain (ECD) of IGF-1R; not shown: Fc only implied by the catalogue number; not described
T1 sequence (Q60751 31-936): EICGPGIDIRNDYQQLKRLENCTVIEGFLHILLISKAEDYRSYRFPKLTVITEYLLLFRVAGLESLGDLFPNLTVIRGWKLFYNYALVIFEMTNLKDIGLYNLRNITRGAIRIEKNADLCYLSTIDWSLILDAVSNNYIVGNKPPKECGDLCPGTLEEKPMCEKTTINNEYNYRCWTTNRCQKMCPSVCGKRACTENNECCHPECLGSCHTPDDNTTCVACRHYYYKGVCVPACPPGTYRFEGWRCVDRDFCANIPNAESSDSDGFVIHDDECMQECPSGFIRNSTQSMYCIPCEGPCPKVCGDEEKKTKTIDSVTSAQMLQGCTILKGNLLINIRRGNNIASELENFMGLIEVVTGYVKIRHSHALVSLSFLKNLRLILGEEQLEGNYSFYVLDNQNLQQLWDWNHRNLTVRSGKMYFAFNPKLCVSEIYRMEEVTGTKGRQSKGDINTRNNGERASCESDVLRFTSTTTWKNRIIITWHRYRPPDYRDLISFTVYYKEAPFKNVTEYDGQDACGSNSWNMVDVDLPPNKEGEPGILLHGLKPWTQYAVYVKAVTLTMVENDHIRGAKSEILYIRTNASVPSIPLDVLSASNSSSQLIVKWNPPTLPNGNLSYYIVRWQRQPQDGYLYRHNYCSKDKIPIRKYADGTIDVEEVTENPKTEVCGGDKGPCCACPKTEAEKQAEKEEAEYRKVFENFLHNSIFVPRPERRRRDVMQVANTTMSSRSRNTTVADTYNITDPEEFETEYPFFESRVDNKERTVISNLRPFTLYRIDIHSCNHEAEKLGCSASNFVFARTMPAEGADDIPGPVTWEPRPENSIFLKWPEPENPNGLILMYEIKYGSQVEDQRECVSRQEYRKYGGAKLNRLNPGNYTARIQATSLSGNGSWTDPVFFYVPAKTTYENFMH
Assay: ELISA, coated rm IGF-1R, SNT 5 ug/ml
reported-property: D.O 450 nm (D.O 450 nm)
Give bare numbers, in D.O 450 nm.

The examples below pair each entry with its known result.
| binder | unit-abbrev | D.O 450 nm |
| --- | --- | --- |
| m212A11 (antibody, V domains shown, murine mAb, hybridoma CNCM I-4773, group G2) VH: QVQLQQSGPELVKPGASVKMSCKASGYTFTSYYIHWVKQRPGQGLEWIGWIWPGDGSTKYNEKFKGKTTLTADKSSSTAYMFLSSLTSEDSAVYFCASPMITPNYAMDYWGQGASVTVSS VL: DIQMTQTTSSLSASLGDRVTISCRASQDINKYLNWYQQQPDGTVKLLIYYTSRLHSGVPSRFSGRGSGTDYSLTISNLEQEDIATYFCQQGSTLPYTFGGGTKLEIK | D.O 450 nm | 0.102 |
| m208F2 (antibody, V domains shown, murine mAb, hybridoma CNCM I-4757, group G2; also called murine 208F2) VH: QVQLQQSGPELVKPGASVKMSCKASGYTFTSYYIYWVKQRPGQGLEWLGWIWPGDGSTKYNEKFKDKTTLTADKSSNTAYMFLSSLTSEDSAVYFCASPMITPNYAMDYWGQGASVTVSS VL: DIQMTQTTSSLSASLGDRVTISCRASQDISKYLNWYQQQPDGTIKLLIYYTSRLHSGVPSRFSGRGSGTDYSLTISNVEQEDIATYFCQQGSTLPYTFGGGTKLEIK | D.O 450 nm | 0.099 |
| m214F8 (antibody, V domains shown, murine mAb, hybridoma CNCM I-4775, group G2) VH: QVQLQQSGSELVKPGASVKLSCKASGYTFTSYYIHWVKQRPGQGLEWIGWIWPGDGSTKYNERFKGKTTLTADKSSSTAYMFLSSLTSEDSAVYFCASPMITPNYAMDYWGQGASVTVSS VL: DIQMTQTTSSLSASLGDRVTFSCRASQDISKYLNWYQQQPDGTIKLLIYYTSRLHSGVPSRFSGRGSGTDYSLTITNLEQEDIATYFCQQGSALPYTFGGGTKLEIK | D.O 450 nm | 0.102 |

So what does the record say about D.O 450 nm for m219D6 (antibody, V domains shown, murine mAb, hybridoma CNCM I-4736, group G2) VH: QVQLQQSGPELVKPGDSVKMSCKASGYSFTSYFIHWVKQRPGQGLEWIGWIWPGDGSTKYNEKFKGKTTLTTDKSSSTAYMFLNSLTSEDSAVYFCASPMITPNYAMDYWGQGASVTVSS VL: DIQMTQTTSSLSASLGDRVTISCRASQDISKYLNWYQQQPDGTVKLLIYYTSRLHSGVPSRFSGRGSGTDYSLTISNLEQEDIATYFCQQGSTLPYTFGGGTKLEIK ? 0.112
